# methodDescription: folding enthalpy; higher = less favourable; fluorescence melt of hairpins on a sequencing array, two-state fit
# protocolConditions: sodium 0.088 M
Catalogue of folding enthalpy values
A number alone suffices; assume kcal/mol.

{"sequenceInput": "GGCATCGAAAGATGGCC ((((((....))).)))", "folding enthalpy [kcal/mol]": -20.1}
{"sequenceInput": "GAGCACGAAAGTGTTCTC ((((((....)))..)))", "folding enthalpy [kcal/mol]": -25.5}
{"sequenceInput": "GCCAGGCGAAAGCATTGC ((.(.((....)).).))", "folding enthalpy [kcal/mol]": -13.1}

Ask: What does the record list as folding enthalpy for GAAACTGGAAACAGTCTC ((.((((....)))).)) ?
Reply: -15.5

Ask: Same lookup for GGCTAGGGAAACCTGGTC (.(.(((....))).).) , please.
Reply: -30.6

Ask: Same lookup for GGCCACGCGAAAGCGGCC (((..(((....)))))) , please.
Reply: -19

Ask: Same lookup for GGCGCTGGAAACAGCACC ((.((((....)))).)) , please.
Reply: -29.7

Ask: Same lookup for GTGCCCGAAAGGGCCAC ((((((....))).))) , please.
Reply: -7.47

Ask: Same lookup for GCGACGCGAAAGCTACGC (((..((....))..))) , please.
Reply: -18.6

Ask: Same lookup for GTCTGCGGAAACGTGGAC (((..((....))..))) , please.
Reply: -32.4

Ask: Same lookup for GATCGTTGTTACGATC ((((((....)))))) , please.
Reply: -37.7

Ask: Same lookup for GATCAAATGATTGATC ((((((....)))))) , please.
Reply: -26.2

---

# methodDescription: folding enthalpy; higher = less favourable; fluorescence melt of hairpins on a sequencing array, two-state fit
# protocolConditions: sodium 0.088 M
measurementType: folding enthalpy (kcal/mol)
A number alone suffices; assume kcal/mol.

Field: example entries. Status: answers known.
{"sequenceInput": "GATCGCTTGTGCGATC ((((((....))))))", "folding enthalpy, kcal/mol": -21.5}
{"sequenceInput": "GACTGCGAAAGCACAGTC ((((((....)))..)))", "folding enthalpy, kcal/mol": -13.2}
{"sequenceInput": "GATGGTGGAAACACCACC (.(((((....))))).)", "folding enthalpy, kcal/mol": -13.6}

Then there is this sequence:
Ask: What does the record list as folding enthalpy for GCGTGTGCACGC ((((....)))) ?
Reply: -29.9

---

# methodDescription: melting temperature; fluorescence melt of hairpins on a sequencing array, two-state fit, raised by 9.35 °C to match UV melts
# protocolConditions: sodium 0.088 M
measurementType: Tm (°C)
A number alone suffices; assume °C.

Field: example entries. Status: answers known.
{"sequenceInput": "GGACGTGGAAACGCGTCC (((((.(....).)))))", "Tm [°C]": 61.9}
{"sequenceInput": "GATCTGTTAACAGATC ((((((....))))))", "Tm [°C]": 54.7}
{"sequenceInput": "GCGAGCCTTCGC ((((....))))", "Tm [°C]": 53.9}
{"sequenceInput": "CGCGATCGGAAACGAGCG (((..(((....))))))", "Tm [°C]": 53}
{"sequenceInput": "GGAAGGCGAAAGCCTCC (((.(((....))))))", "Tm [°C]": 56.9}

Ask: What does the record list as Tm for GATCGAACATTCGATC ((((((....)))))) ?
Reply: 50.7

Ask: Same lookup for GCGATCCATCGC ((((....)))) , please.
Reply: 57.2

Ask: Same lookup for GATCCCGCGGGGATC ((((((...)))))) , please.
Reply: 61

Ask: Same lookup for GGTAACGGAAACGCTACC ((((.((....)).)))) , please.
Reply: 43.7

Ask: Same lookup for GGGAGCCGAAAGGCCCCC (((.(((....))).))) , please.
Reply: 65.9
